Recorded EC50 for the following compounds
Tested on: A549
experiment.notes: Cytotoxicity against human A549 cells by SRB assay
Format: functional
particulars: read-out: ED50 (the source's name)
Could you write the number and then its unit?

The cases that follow already have their EC50 on record.
- compound: "COc1cccc2c1C(=O)c1c(O)c3c(c(O)c1C2=O)C[C@@](O)(C(=O)CO)C[C@@H]3O[C@H]1C[C@H](N)[C@H](O)[C@H](C)O1"
  test.system: "A549"
  EC50: "0.05 µg/mL"
- compound: "CC(=O)Oc1cnc2c(OC(C)=O)cccc2c1 [JINEOL ACETATE]"
  test.system: "A549"
  EC50: "8 µg/mL"

GET EC50 where system = A549 and item = Oc1cnc2c(O)cccc2c1
5.8 µg/mL

Please tell me the measured EC50 for COc1cnc2c(OC)cccc2c1 ; system: A549.
38 µg/mL

---

Tested on: SK-MEL-2
experiment.notes: Cytotoxicity against human SK-MEL-2 cells by SRB assay
Type: functional
particulars: read-out: ED50 (the source's name)
quantity.kind: EC50 (mg/L)
Provide the reading as a plain figure in mg/L.

State recorded EC50 with SK-MEL-2, entry COc1cccc2c1C(=O)c1c(O)c3c(c(O)c1C2=O)C[C@@](O)(C(=O)CO)C[C@@H]3O[C@H]1C[C@H](N)[C@H](O)[C@H](C)O1 [DOXORUBICIN] , no comment.
0.05

Name the value of EC50 reported for CC(=O)Oc1cnc2c(OC(C)=O)cccc2c1 [JINEOL ACETATE] when tested on SK-MEL-2.
11

State recorded EC50 with SK-MEL-2, entry Oc1cnc2c(O)cccc2c1 [JINEOL] , no comment.
5.6

Give measured EC50 for COc1cnc2c(OC)cccc2c1 [JINEOL METHYL ETHER] (SK-MEL-2).
21

---

Tested on: SK-OV-3
experiment.notes: Cytotoxicity against human SKOV3 cells by SRB assay
Assay type: functional
particulars: read-out: ED50 (the source's name)
# EC50 listing for each entry below
Answer with the number, then the unit.

Consider the following illustrative entries.
- compound: "Oc1cnc2c(O)cccc2c1"
  quantity.kind: "EC50"
  obs.value: "4.5 µg/mL"
- compound: "CC(=O)Oc1cnc2c(OC(C)=O)cccc2c1 [JINEOL ACETATE]"
  quantity.kind: "EC50"
  obs.value: "14 µg/mL"
- compound: "COc1cnc2c(OC)cccc2c1"
  quantity.kind: "EC50"
  obs.value: "32 µg/mL"

Let's switch to this compound now.
Please report the measured EC50 for COc1cccc2c1C(=O)c1c(O)c3c(c(O)c1C2=O)C[C@@](O)(C(=O)CO)C[C@@H]3O[C@H]1C[C@H](N)[C@H](O)[C@H](C)O1
0.11 µg/mL
